The reported measurements were obtained from patent US20150111251A1.

target: Recombinant Human TNF-α/TNFSF1A (human, UniProt P01375 77-233); experiment: cell-based or functional assay
Sequence (P01375 77-233 limits assumed): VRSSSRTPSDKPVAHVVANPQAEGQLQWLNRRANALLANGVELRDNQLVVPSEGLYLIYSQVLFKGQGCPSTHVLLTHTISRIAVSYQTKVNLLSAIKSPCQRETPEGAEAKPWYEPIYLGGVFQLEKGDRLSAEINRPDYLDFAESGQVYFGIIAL
Each entry below lists one item and its recorded TNFα Neutralization Assay IC50 nM (L929 cells) value.
measure-name: TNFα Neutralization Assay IC50 nM (L929 cells) (nM)

INSERT INTO results (binder, qualifier_operator, recorded_measurement) VALUES
  ('AB351 (antibody, V domains shown, Full-length humanized antibody made in HEK 293-6E; also called hMAK199VH.1/hMAK199VL.1) VH: EVQLVQSGSELKKPGASVKVSCKASGYTFTNYGMNWVRQAPGQGLEWMGWINTYTGEPTYADDFKGRFVFSLDTSVSTAYLQISSLKAEDTAVYYCARKFLTTVVVTDYAMDYWGQGTTVTVSS VL: DIQMTQSPSSLSASVGDRVTITCRASQDISNYLNWYQQKPGKAPKLLIYYTSRLQSGVPSRFSGSGSGTDFTLTISSLQPEDFATYYCQQGNTLPPTFGQGTKLEIK', '=', 1.06),
  ('AB353 (antibody, V domains shown, Full-length humanized antibody made in HEK 293-6E; also called hMAK199VH.1/hMAK199VL.1b) VH: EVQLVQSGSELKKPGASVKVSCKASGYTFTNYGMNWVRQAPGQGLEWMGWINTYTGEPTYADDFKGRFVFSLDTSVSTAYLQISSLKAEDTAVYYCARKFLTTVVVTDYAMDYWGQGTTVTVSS VL: DIQMTQSPSSLSASVGDRVTITCRASQDISNYLNWYQQKPGKAPKLLIYYTSRLQSGVPSRFSGSGSGTDYTLTISSLQPEDFATYYCQQGNTLPPTFGQGTKLEIK', '=', 0.66),
  ('AB377 (antibody, V domains shown, Full-length humanized antibody made in HEK 293-6E; also called hMAK199VH.2a/hMAK199VL.1b) VH: EIQLVQSGAEVKKPGASVKVSCKASGYTFTNYGMNWVRQAPGQGLEWMGWINTYTGEPTYADDFKGRFTFTLDTSTSTAYMELSSLRSEDTAVYFCARKFLTTVVVTDYAMDYWGQGTTVTVSS VL: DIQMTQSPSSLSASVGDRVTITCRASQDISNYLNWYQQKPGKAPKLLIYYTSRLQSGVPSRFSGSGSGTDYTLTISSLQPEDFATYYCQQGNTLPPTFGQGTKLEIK', '>', 20),
  ('AB362 (antibody, V domains shown, Full-length humanized antibody made in HEK 293-6E; also called hMAK199VH.1a/hMAK199VL.2b) VH: EIQLVQSGSELKKPGASVKVSCKASGYTFTNYGMNWVRQAPGQGLEWMGWINTYTGEPTYADDFKGRFVFSLDTSVSTAYLQISSLKAEDTAVYFCARKFLTTVVVTDYAMDYWGQGTTVTVSS VL: DIVMTQSPAFLSVTPGEKVTITCRASQDISNYLNWYQQKPDQAPKLLIYYTSRLQSGVPSRFSGSGSGTDYTFTISSLEAEDAATYYCQQGNTLPPTFGQGTKLEIK', '=', 2.11),
  ('AB359 (antibody, V domains shown, Full-length humanized antibody made in HEK 293-6E; also called hMAK199VH.1a/hMAK199VL.1b) VH: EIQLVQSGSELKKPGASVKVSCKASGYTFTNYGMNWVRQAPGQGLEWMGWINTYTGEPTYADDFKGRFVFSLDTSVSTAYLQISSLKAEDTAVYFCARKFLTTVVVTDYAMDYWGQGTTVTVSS VL: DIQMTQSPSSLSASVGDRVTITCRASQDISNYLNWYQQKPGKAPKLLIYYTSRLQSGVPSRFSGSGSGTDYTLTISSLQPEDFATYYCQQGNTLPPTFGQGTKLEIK', '=', 3.78);
